src = ChEMBL document CHEMBL3352742

Test system: Bacillus subtilis
ASSAY_SUMMARY: Antibacterial against Bacillus subtilis ATCC 530 after 24 hrs by two-fold serial dilution method
Format: functional
APPLIED_CONDITIONS: ATCC 530, 24 h
Each entry below carries its reported MIC.
ATTRIBUTE_MEASURED: MIC (µg/mL)

- COMPOUND: "O=c1cc(OCC(O)CN2CCN(c3ccccc3F)CC2)c2ccccc2o1 (stereo not given)"
  ATTRIBUTE_MEASURED: "MIC"
  READOUT_QUALIFIER: ">"
  OBSERVED: 50
- COMPOUND: "O=C(COc1cc(=O)oc2ccccc12)N1CCN(c2ccc(Cl)cc2)CC1"
  ATTRIBUTE_MEASURED: "MIC"
  READOUT_QUALIFIER: "="
  OBSERVED: 15.8
- COMPOUND: "O=C(COc1cc(=O)oc2ccccc12)N1CCN(c2ccc(Cl)c(Cl)c2)CC1"
  ATTRIBUTE_MEASURED: "MIC"
  READOUT_QUALIFIER: "="
  OBSERVED: 1.86
- COMPOUND: "O=C(COc1cc(=O)oc2ccccc12)N1CCN(c2cccc(Cl)c2)CC1"
  ATTRIBUTE_MEASURED: "MIC"
  READOUT_QUALIFIER: "="
  OBSERVED: 2.94
- COMPOUND: "O=C(COc1cc(=O)oc2ccccc12)N1CCN(c2ccccc2)CC1"
  ATTRIBUTE_MEASURED: "MIC"
  READOUT_QUALIFIER: ">"
  OBSERVED: 50

----------
Recorded MIC, one value per entry.
Tested on: Bacillus subtilis
ASSAY_SUMMARY: Antibacterial against Bacillus subtilis ATCC 530 after 24 hrs by two-fold serial dilution method
Type: functional
APPLIED_CONDITIONS: ATCC 530, 24 h

- COMPOUND: "O=c1cc(OCC(O)CN2CCN(c3ccccc3Cl)CC2)c2ccccc2o1 (stereo not drawn)"
  MIC (µg/mL): 13.9
- COMPOUND: "O=c1cc(OCC(O)CN2CCN(c3cccc(C(F)(F)F)c3)CC2)c2ccccc2o1 (stereo not drawn)"
  MIC (µg/mL): 1.08
- COMPOUND: "COc1ccc(N2CCN(C(=O)COc3cc(=O)oc4ccccc34)CC2)cc1"
  MIC (µg/mL): 0.861

----------
Test system: Bacillus subtilis
ASSAY_SUMMARY: Antibacterial against Bacillus subtilis ATCC 530 after 24 hrs by two-fold serial dilution method
Assay type: functional
APPLIED_CONDITIONS: ATCC 530, 24 h
Examples of compounds with documented MIC follow.
ATTRIBUTE_MEASURED: MIC

- COMPOUND: "O=C(COc1cc(=O)oc2ccccc12)N1CCN(c2cccc(Cl)c2Cl)CC1"
  ASSAYED_SYSTEM: "Bacillus subtilis"
  OBSERVED: "4.51 µg/mL"
- COMPOUND: "O=c1cc(OCC(O)CN2CCN(c3ccccc3)CC2)c2ccccc2o1 (stereo unspecified)"
  ASSAYED_SYSTEM: "Bacillus subtilis"
  OBSERVED: "37.9 µg/mL"
- COMPOUND: "O=c1cc(OCC(O)CN2CCN(c3cccc(Cl)c3Cl)CC2)c2ccccc2o1 (stereo unspecified)"
  ASSAYED_SYSTEM: "Bacillus subtilis"
  OBSERVED: "18.2 µg/mL"
- COMPOUND: "COc1ccccc1N1CCN(CC(O)COc2cc(=O)oc3ccccc23)CC1 (stereo unspecified)"
  ASSAYED_SYSTEM: "Bacillus subtilis"
  OBSERVED: "3.88 µg/mL"
- COMPOUND: "O=C(COc1cc(=O)oc2ccccc12)N1CCN(c2ccccc2F)CC1"
  ASSAYED_SYSTEM: "Bacillus subtilis"
  OBSERVED: "31.3 µg/mL"
- COMPOUND: "COc1ccc(N2CCN(CC(O)COc3cc(=O)oc4ccccc34)CC2)cc1 (stereo unspecified)"
  ASSAYED_SYSTEM: "Bacillus subtilis"
  OBSERVED: "0.236 µg/mL"
- COMPOUND: "O=c1cc(OCC(O)CN2CCN(c3ccc(Cl)c(Cl)c3)CC2)c2ccccc2o1 (stereo unspecified)"
  ASSAYED_SYSTEM: "Bacillus subtilis"
  OBSERVED: "0.339 µg/mL"
- COMPOUND: "Cc1ccc(N2CCN(CC(O)COc3cc(=O)oc4ccccc34)CC2)c(C)c1 (stereo unspecified)"
  ASSAYED_SYSTEM: "Bacillus subtilis"
  OBSERVED: "2.86 µg/mL"
- COMPOUND: "O=C(COc1cc(=O)oc2ccccc12)N1CCN(c2ccc([N+](=O)[O-])cc2)CC1"
  ASSAYED_SYSTEM: "Bacillus subtilis"
  OBSERVED: "1.94 µg/mL"
- COMPOUND: "COc1cccc(N2CCN(C(=O)COc3cc(=O)oc4ccccc34)CC2)c1"
  ASSAYED_SYSTEM: "Bacillus subtilis"
  OBSERVED: "6.96 µg/mL"
- COMPOUND: "Cc1ccc(N2CCN(C(=O)COc3cc(=O)oc4ccccc34)CC2)c(C)c1"
  ASSAYED_SYSTEM: "Bacillus subtilis"
  OBSERVED: "34.4 µg/mL"
- COMPOUND: "COc1ccccc1N1CCN(C(=O)COc2cc(=O)oc3ccccc23)CC1"
  ASSAYED_SYSTEM: "Bacillus subtilis"
  OBSERVED: "11 µg/mL"
- COMPOUND: "O=C(COc1cc(=O)oc2ccccc12)N1CCN(c2ccc(F)cc2)CC1"
  ASSAYED_SYSTEM: "Bacillus subtilis"
  OBSERVED: "34.8 µg/mL"
- COMPOUND: "COc1cccc(N2CCN(CC(O)COc3cc(=O)oc4ccccc34)CC2)c1 (stereo unspecified)"
  ASSAYED_SYSTEM: "Bacillus subtilis"
  OBSERVED: "0.612 µg/mL"
- COMPOUND: "O=c1cc(OCC(O)CN2CCN(Cc3ccccc3)CC2)c2ccccc2o1 (stereo unspecified)"
  ASSAYED_SYSTEM: "Bacillus subtilis"
  OBSERVED: "> 50 µg/mL"
- COMPOUND: "O=c1cc(OCC(O)CN2CCN(c3ccc(F)cc3)CC2)c2ccccc2o1 (stereo unspecified)"
  ASSAYED_SYSTEM: "Bacillus subtilis"
  OBSERVED: "> 50 µg/mL"
- COMPOUND: "O=c1cc(OCC(O)CN2CCN(c3cccc(Cl)c3)CC2)c2ccccc2o1 (stereo unspecified)"
  ASSAYED_SYSTEM: "Bacillus subtilis"
  OBSERVED: "26 µg/mL"
- COMPOUND: "O=C(COc1cc(=O)oc2ccccc12)N1CCN(c2ccccc2Cl)CC1"
  ASSAYED_SYSTEM: "Bacillus subtilis"
  OBSERVED: "7.18 µg/mL"
- COMPOUND: "O=C(COc1cc(=O)oc2ccccc12)N1CCN(c2cccc(C(F)(F)F)c2)CC1"
  ASSAYED_SYSTEM: "Bacillus subtilis"
  OBSERVED: "0.916 µg/mL"
- COMPOUND: "O=c1cc(OCC(O)CN2CCN(c3ccc([N+](=O)[O-])cc3)CC2)c2ccccc2o1 (stereo unspecified)"
  ASSAYED_SYSTEM: "Bacillus subtilis"
  OBSERVED: "3.65 µg/mL"
- COMPOUND: "CC1(C)S[C@@H]2[C@H](NC(=O)Cc3ccccc3)C(=O)N2[C@H]1C(=O)O [PENICILLIN G]"
  ASSAYED_SYSTEM: "Bacillus subtilis"
  OBSERVED: "0.752 µg/mL"
